# Test system: RPMI-8226 leukemia
# assay-method-text: NCI tumour cell line growth inhibition, 48 h
value-type: TGI

Before answering, review these 5 worked examples.
molecule	value-type	assay-result
COc1ccc2c(c1)CN([C@@H](C)[C@H]1CC[C@H]3[C@@H]4CC[C@H]5C[C@@H](O)CC[C@]5(C)[C@H]4CC[C@]13C)CO2	TGI	1.97 µM
CCOc1cc(/C=C/C(=O)C(C(=O)/C=C/c2ccc(OC(=O)CNc3nc4ccccc4[nH]3)c(OCC)c2)C(=O)CNc2nc3ccccc3[nH]2)ccc1OC(=O)CNc1nc2ccccc2[nH]1	TGI	2.51 µM
Nc1nc2ccc(Sc3ccc4nc(N)[nH]c(=O)c4c3)cc2c(=O)[nH]1	TGI	> 100 µM
CCN1[C@@H](C(=O)NC23CCC(C(=O)O)(CC2)CC3)[C@H](c2cccc(Cl)c2F)[C@]2(C(=O)Nc3cc(Cl)ccc32)C12CCCCC2	TGI	6.61 µM
CC1(C)OCC(C2OC3OC(C)(C)OC3C2c2ccccc2)O1 (stereo not drawn)	TGI	> 100 µM

Task: State TGI on RPMI-8226 leukemia. Entry: COc1ccccc1-c1cc(=O)c2cc(C)c(C)c(C(=O)O)c2o1
Output: > 100 µM

Task: State TGI on RPMI-8226 leukemia. Entry: CCOC(=O)c1sc2c(c1OC(=O)c1cc(OC)c(OC)c(OC)c1)c(=O)n(-c1ccccc1)c(=S)n2-c1ccccc1
Output: > 100 µM

Task: State TGI on RPMI-8226 leukemia. Entry: CC(=O)c1ccc(NC(=O)C(=O)C(C(=O)/C=C/c2ccccc2)C2OC(=O)c3ccccc32)cc1 (stereo not drawn)
Output: > 100 µM
